Tested on: TK-10 renal
Measurement Description: NCI tumour cell line growth inhibition, 48 h
Measured Parameter: GI50

Input: Given the molecule COc1ccc(-c2c(C#N)cnc(N)c2-c2nc3cc(C)c(C)cc3[nH]2)cc1 , what is its reported GI50?
Output: 5.94 µM

----------
Quick list: TGI per entry.
Tested on: BT-549 breast
Measurement Description: NCI tumour cell line growth inhibition, 48 h
State just the number; it will be interpreted in µM.

Input: Given the compound O=C(Nc1ccc(N2CCNCC2)cn1)c1[nH]ncc1Nc1ncnc2sc3c(c12)CCC3 , what is its reported TGI?
Output: 38.6

Input: Given the compound Nc1nc(Cl)c2ncn(Cc3ccc(-c4ccc(CCl)cc4)cc3)c2n1 , what is its reported TGI?
Output: 37.8

----------
System: SF-539 CNS
Measurement Description: NCI tumour cell line growth inhibition, 48 h; in the data active = GI50 below about 0.43 µM; inactive = the rest
# valid calls are active, inactive; nothing else

Past entries and their recorded results:
Cn1c(=O)c2[nH]cnc2n(C)c1=O.[CH2-]C(Cc1cccc2cc(C(=O)O)c(=O)oc12)OC.[Hg+2].[OH-] (centres undefined) : inactive
CN1C(=O)C(C)(C)Oc2c(-c3cn(C)c(=O)c4[nH]ccc34)cc(S(C)(=O)=O)cc21 : inactive
CNCC1CCn2c(c(C3=C(c4cn(C)c5ccccc45)C(=O)NC3=O)c3ccccc32)C1 (centres undefined) : inactive

Kindly review the next compound as well.
Input: Fill in: this test's call for COc1cc[nH]c1/C=C1\C(=O)Nc2ccc([N+](=O)[O-])c(N3CC[C@@H](O)C3)c21 is ___
Output: active

----------
Test system: U251 CNS
# valid calls are active, inactive; nothing else

Past entries and their recorded results:
COc1ccc(CNC(=O)c2c(C)n([O-])c3cc(F)c(F)cc3[n+]2=O)cc1 : inactive
COc1ccc(-c2c(C#N)cnc(N)c2-c2nc3cc(C)c(C)cc3[nH]2)cc1 : inactive
COc1ccc(-c2cc(=O)c3cccnc3[nH]2)cc1 : inactive
O=S1(=O)C=C(c2ccccc2)C(c2ccccc2)=C1 : inactive
COc1cc[nH]c1/C=C1\C(=O)Nc2ccc([N+](=O)[O-])c(N3CC[C@@H](O)C3)c21 : active
O=C(N/N=C/c1cccc(O)c1)c1ccc(C(F)(F)F)nc1Nc1cccc(C(F)(F)F)c1 : inactive
CN(C)c1ccc(/C=c2\sc3nnc(Cc4ccccc4)n3c2=O)cc1 : inactive
CCN1C(=O)N(CC)C2C1NN=c1s/c(=C\c3cnc(C)n3C)c(=O)n12 (centres undefined) : inactive

Input: Fill in: this test's call for COC(=O)[C@]1(C)CC[C@]2(C)CC[C@]3(C)C(=CC(=O)[C@@H]4[C@@]5(C)CCC(=O)NC(C)(C)[C@@H]5CC[C@]43C)[C@@H]2C1 is ___
Output: inactive

----------
Quick list: TGI per entry.
Tested on: UACC-62 melanoma
Measurement Description: NCI tumour cell line growth inhibition, 48 h

Recorded results for 3 molecules are shown here.
ClCCCN1CCCCC1CCl (centres undefined) : > 100 µM
CCOC(=O)C(C(=O)OCC)C(NC(=O)Nc1cc(C(F)(F)F)ccc1OC)(C(F)(F)F)C(F)(F)F : 88.8 µM
Cc1ccc(NCc2nnc3c(-c4ccccc4)nc4ccccc4n23)cc1 : > 100 µM

As a next step, examine the molecule that follows.
Input: Given the molecule CN/N=C(/CC(=O)c1sc(NNC(C)=O)nc1C)C(=O)Nc1ccc(OC)cc1OC , what is its reported TGI?
Output: > 100 µM
